- assay.overview: alamarBlue reduction cytotoxicity assay in replicon cells
- Type: cell-based
- conditions.used: human, HCV Replicon 1b cells
Classes by CC50 at 3 days: category 1 = under 60 µM, category 2 = from 60 µM up to 100 µM, category 3 = 100 µM and over

Consider the worked cases shown below.
compound	label
O=c1ncn(-c2ccccc2)c2ccc([N+](=O)[O-])cc12 [4a, 6-Nitro-1-phenylquinazolin-4(1H)-one]	category 3
COC(=O)N[C@H](C(=O)N1CCC[C@H]1c1nc(-c2ccc(-c3ccc(-c4c[nH]c([C@@H]5CCCN5C(=O)[C@@H](NC(=O)OC)C(C)C)n4)cc3)cc2)c[nH]1)C(C)C [Daclatasvir, reference compound]	category 1

Query string: Pick a category. Item: Cc1ccc(OCC(=O)Nc2ccc3c(c2)c(=O)ncn3-c2ccccc2)cc1 [7a]
Result string: category 2

Query string: Pick a category. Item: O=C(CCl)Nc1ccc2c(c1)c(=O)ncn2-c1ccccc1 [6a]
Result string: category 3

Query string: Pick a category. Item: Cc1cccc(-n2c(C)nc(=O)c3cc(NC(=O)COc4ccc(Cl)c(C)c4)ccc32)c1 [11f]
Result string: category 1

Query string: Pick a category. Item: Cc1cccc(-n2c(C)nc(=O)c3cc(NC(=O)COc4ccc(Cl)cc4)ccc32)c1 [11e]
Result string: category 1

Query string: Pick a category. Item: Nc1ccc2c(c1)c(=O)ncn2-c1ccccc1 [5a, 6-Amino-1-phenylquinazolin-4(1H)-one]
Result string: category 3

Query string: Pick a category. Item: Cc1ccc(OCC(=O)Nc2ccc3c(c2)c(=O)ncn3-c2cccc(C)c2)cc1 [7d]
Result string: category 1

Query string: Pick a category. Item: Cc1nc(=O)c2cc(NC(=O)CCl)ccc2n1-c1ccccc1 [10a]
Result string: category 2

Query string: Pick a category. Item: O=C(COc1ccc(Cl)cc1)Nc1ccc2c(c1)c(=O)ncn2-c1ccccc1 [7b]
Result string: category 3

Query string: Pick a category. Item: Cc1cccc(-n2c(C)nc(=O)c3cc(NC(=O)CCl)ccc32)c1 [10b]
Result string: category 3

Query string: Pick a category. Item: Cc1cccc(-n2cnc(=O)c3cc(N)ccc32)c1 [5b, 6-Amino-1-(m-tolyl)quinazolin-4(1H)-one]
Result string: category 3

Query string: Pick a category. Item: Cc1cccc(-n2c(C)nc(=O)c3cc([N+](=O)[O-])ccc32)c1 [8b]
Result string: category 3

Query string: Pick a category. Item: Cc1cc(OCC(=O)Nc2ccc3c(c2)c(=O)nc(C)n3-c2ccccc2)ccc1Cl [11c]
Result string: category 3

Query string: Pick a category. Item: Cc1cccc(-n2cnc(=O)c3cc(NC(=O)COc4ccc(Cl)c(C)c4)ccc32)c1 [7f]
Result string: category 3

Query string: Pick a category. Item: Cc1ccc(OCC(=O)Nc2ccc3c(c2)c(=O)nc(C)n3-c2ccccc2)cc1 [11a]
Result string: category 3

Query string: Pick a category. Item: Cc1cccc(-n2cnc(=O)c3cc([N+](=O)[O-])ccc32)c1 [4b, 6-Nitro-1-(m-tolyl)quinazolin-4(1H)-one]
Result string: category 2

Query string: Pick a category. Item: Cc1cccc(-n2cnc(=O)c3cc(NC(=O)CCl)ccc32)c1 [6b]
Result string: category 3

Query string: Pick a category. Item: Cc1nc(=O)c2cc(N)ccc2n1-c1ccccc1 [9a]
Result string: category 3

* * *

Catalogue of compounds with associated solubility at 24 h
- assay.overview: Water solubility by HPLC-UV after 24 h agitation
- Assay type: physicochemical
- conditions.used: thermodynamic from solid, deionized water, ambient temperature
Give the value in µg/mL but do not write µg/mL after it.

>>> print(df.to_string())
                                   compound  readout_units  endpoint_value
0  Cc1ccc(OCC(=O)Nc2ccc3c(c2)c(=O)nc(C)n3-c2ccccc2)cc1 [11a]          µg/mL             2.7

Record Cc1nc(=O)c2cc(NC(=O)COc3ccc(Cl)cc3)ccc2n1-c1ccccc1 [11b] , field solubility at 24 h: 3.5

* * *

reported.metric: melting point

Observe how each entry below is paired with its result.
>>> df
                              smiles_record  reported_metric  endpoint_value
0         Cc1cccc(-n2cnc(=O)c3cc(N)ccc32)c1    melting point   288 to 290 °C
1  Cc1cccc(-n2c(C)nc(=O)c3cc([N+](=O)[O-])ccc32)c1    melting point   258 to 260 °C

Record Cc1nc(=O)c2cc([N+](=O)[O-])ccc2n1-c1ccccc1 , field melting point: 260 to 262 °C

* * *

reported.metric: melting point (°C)
Give the value in °C but do not write °C after it.

Observe how each entry below is paired with its result.
>>> df
                                   compound  readout_units  endpoint_value
0  Cc1ccc(OCC(=O)Nc2ccc3c(c2)c(=O)ncn3-c2ccccc2)cc1             °C             220
1  O=C(COc1ccc(Cl)cc1)Nc1ccc2c(c1)c(=O)ncn2-c1ccccc1             °C             262
2  Cc1cccc(-n2c(C)nc(=O)c3cc(NC(=O)COc4ccc(Cl)cc4)ccc32)c1 [11e]             °C             283
3  Cc1cccc(-n2c(C)nc(=O)c3cc(NC(=O)CCl)ccc32)c1 [10b]             °C             280
4  Cc1cccc(-n2cnc(=O)c3cc(NC(=O)COc4ccc(Cl)cc4)ccc32)c1             °C             255
5  Cc1cccc(-n2cnc(=O)c3cc(NC(=O)CCl)ccc32)c1             °C             290

Record Cc1ccc(OCC(=O)Nc2ccc3c(c2)c(=O)nc(C)n3-c2cccc(C)c2)cc1 [11d] , field melting point: 270

Record Cc1nc(=O)c2cc(NC(=O)COc3ccc(Cl)cc3)ccc2n1-c1ccccc1 [11b] , field melting point: 254

* * *

- assay.overview: alamarBlue reduction cytotoxicity assay in replicon cells
- Type: cell-based
- conditions.used: human, HCV Replicon 1b cells
reported.metric: CC50 at 3 days (µM)
Give the value in µM but do not write µM after it.

Observe how each entry below is paired with its result.
>>> print(df.to_string())
                                   molecule  endpoint_value
0  Cc1nc(=O)c2cc(NC(=O)COc3ccc(Cl)cc3)ccc2n1-c1ccccc1 [11b]              99
1  Cc1cc(OCC(=O)Nc2ccc3c(c2)c(=O)ncn3-c2ccccc2)ccc1Cl            75.2

Record NC(=O)c1cc([N+](=O)[O-])ccc1Nc1ccccc1 [3a, 5-nitro-2-(phenylamino)benzamide] , field CC50 at 3 days: 70.7

Record Cc1cccc(Nc2ccc([N+](=O)[O-])cc2C(N)=O)c1 [3b, 5-Nitro-2-(m-tolylamino) benzamide] , field CC50 at 3 days: 161

Record Cc1ccc(OCC(=O)Nc2ccc3c(c2)c(=O)nc(C)n3-c2cccc(C)c2)cc1 [11d] , field CC50 at 3 days: 22.7

Record Cc1cccc(-n2cnc(=O)c3cc(NC(=O)COc4ccc(Cl)cc4)ccc32)c1 , field CC50 at 3 days: 47.6
